- Test system: zebrafish Abcb4 (ABCB1 homolog)
- experiment: qHTS for characterization and localization of zebrafish homologs of the human ABCB1 multidrug transporter: ABCB4 transfected cells
- measurement conditions: CellTiter-Glo viability luminescence, 72 h; series mostly up to 46.1 µM
Results filed as inconclusive are left out. The source made the active and inactive calls. The call rests on the fitted dose curve; in most records, active means well fitted inhibition curve with a large enough effect; inconclusive means small, poorly fitted or top-dose-only effect; inactive means no such curve, though single readings can be large or run the other way.

molecule	assayed system	Potency
CC1(C)CC[C@]2(C(=O)OC3OC(CO)C(O)C(O)C3O)CC[C@]3(C)C(=CCC4[C@@]5(C)CC[C@H](OC6OC(C(=O)O)C(O)C(O)C6O)C(CO)(CO)C5CC[C@]43C)[C@@H]2C1 (stereo not given in full)	zebrafish Abcb4 (ABCB1 homolog)	inactive
CO[C@H]1/C=C/C=C/C=C/C[C@H](OC(=O)[C@@H](C)NC(=O)C2CCCCC2)[C@H](C)[C@@H](O)/C(C)=C/CCc2cc(O)cc(c2)NC(=O)C1	zebrafish Abcb4 (ABCB1 homolog)	inactive
C[C@@H]1O[C@@H](O[C@H]2[C@H](O)[C@@H](O)[C@H](O[C@H]3[C@H](O[C@H]4CC[C@@]5(C)C(=CC[C@@H]6C5CC[C@]5(C)[C@@H]7[C@H](C[C@@H]65)O[C@]5(CC[C@@](C)(CO[C@@H]6O[C@H](CO)[C@@H](O)[C@H](O)[C@H]6O)O5)[C@H]7C)C4)O[C@H](CO)[C@@H](O)[C@@H]3O)O[C@@H]2CO)[C@H](O)[C@H](O)[C@H]1O (stereo not given in full)	zebrafish Abcb4 (ABCB1 homolog)	inactive
C#CCN(Cc1cc2c(=O)n(C)c(CN3CCN(C)CC3)nc2cc1Cl)c1ccc(C(=O)NCc2cccnc2)cc1	zebrafish Abcb4 (ABCB1 homolog)	inactive
CC(=O)C1(O)Cc2c(O)c3c(c(O)c2C(OC2CC(N)C(O)C(C)O2)C1)C(=O)c1c(O)cccc1C3=O (stereo not given)	zebrafish Abcb4 (ABCB1 homolog)	526 nM (active)

###

- System: zebrafish Abcb4 (ABCB1 homolog)
- experiment: qHTS for characterization and localization of zebrafish homologs of the human ABCB1 multidrug transporter: ABCB4 transfected cells
- measurement conditions: CellTiter-Glo viability luminescence, 72 h; series mostly up to 46.1 µM
Records with an inconclusive call do not appear. The source made the active and inactive calls. Calls come from the whole dose curve; as a rule, active = well fitted inhibition curve with a large enough effect; inconclusive = small, poorly fitted or top-dose-only effect; inactive = no such curve, though single readings can be large or run the other way. Numbered stars: 1 amine (or outer) side, 2 acyl side, 3 side chain; on linkers, the order of the positions; unused ones are H or OH. Bridge positions count the residues as written; N and C are the ends. Square brackets hold non-standard residues; d marks the D form. Peptide text beside a SMILES is read from it. I, II: the chains in the order shown. ξ: configuration not given here. Actinocin(9to1) = Cc1c2oc3c(C)ccc(C(=O)[*:1])c3nc-2c(C(=O)[*:2])c(N)c1=O; ξNMeV = CNC(C(=O)O)C(C)C; ξV = CC(C)C(N)C(=O)O; Sar = CNCC(=O)O
Outcome codes: active, inactive

molecule	class name
COc1ccc(CC2C(=O)NC(C)C(=O)N(C)C3Cc4ccc(cc4)Oc4cc(ccc4OC4OC(CO)C(O)C(O)C4O)CC(C(=O)NC(C)C(=O)NC(C)C(=O)N2C)N(C)C3=O)cc1 (centres undefined)	inactive
Cc1c2oc3c(C)ccc(C(=O)N[C@@H]4C(=O)NC(C(C)C)C(=O)N5CCC[C@H]5C(=O)N(C)CC(=O)N(C)C(C(C)C)C(=O)O[C@@H]4C)c3nc-2c(C(=O)N[C@@H]2C(=O)NC(C(C)C)C(=O)N3CCC[C@H]3C(=O)N(C)CC(=O)N(C)C(C(C)C)C(=O)O[C@@H]2C)c(N)c1=O (some centres undefined) (I: T[ξV]P[Sar][ξNMeV] / II: T[ξV]P[Sar][ξNMeV]; ester I:1-I:C, II:1-II:C; linker I:N-II:N via Actinocin(9to1))	active
COc1cc2c(NC3CCN(C(C)C)CC3)nc(N3CCCN(C)CC3)nc2cc1OCCOCCN(C)C	inactive
CC(C)CC(=O)Nc1n[nH]c2c1CN(C(=O)C1CCN(C)CC1)C2(C)C	inactive
CCN(CC)Cc1ccc(C(=O)N(CCc2ccccc2OC)[C@@H]2CCNC2)cc1	inactive
O=C(NC1CC1)c1cccc(-c2ccc3c(NC(=O)C4CC4)n[nH]c3c2)c1	inactive
C=CCn1c(=O)c2cnc(Nc3ccc(N4CCN(C)CC4)cc3)nc2n1-c1cccc(C(C)(C)O)n1	active
CCn1c(-c2nonc2N)nc2c(C#CC(C)(C)O)ncc(OC[C@H]3CCCNC3)c21	inactive
CC(C)(C)c1cnc(CSc2cnc(NC(=O)C3CCNCC3)s2)o1	active

###

- Test system: zebrafish Abcb4 (ABCB1 homolog)
- experiment: qHTS for characterization and localization of zebrafish homologs of the human ABCB1 multidrug transporter: ABCB4 transfected cells
- measurement conditions: CellTiter-Glo viability luminescence, 72 h; series mostly up to 46.1 µM
Records with an inconclusive call do not appear. The source made the active and inactive calls. Calls come from the whole dose curve; as a rule, active = well fitted inhibition curve with a large enough effect; inconclusive = small, poorly fitted or top-dose-only effect; inactive = no such curve, though single readings can be large or run the other way. Square brackets hold non-standard residues; d marks the D form. Peptide text beside a SMILES is read from it. * marks the point of attachment. Cbz = O=C(OCc1ccccc1)*; Nva = CCC[CH](N)C(=O)O
Labels: active, inactive

molecule	assayed system	class name
CC(=O)O[C@@H]1C[C@H](O)[C@@]23CO[C@@H](O)C1(C)[C@@H]2C[C@@H](O)[C@]1(C)[C@@H]3C(=O)[C@H](OC(C)=O)[C@@]2(C)[C@H](c3ccoc3)C[C@H]3O[C@]321	zebrafish Abcb4 (ABCB1 homolog)	active
COc1cc(N2CCC(O)CC2)ccc1Nc1nc(Nc2ccccc2S(=O)(=O)C(C)C)c2[nH]cnc2n1	zebrafish Abcb4 (ABCB1 homolog)	inactive
CCc1c(O)cc(O)c(C(=O)c2ccc(OCCN3CCOCC3)c(OC)c2)c1CC(=O)N(CCOC)CCOC	zebrafish Abcb4 (ABCB1 homolog)	inactive
CN(C)C/C=C/C(=O)Nc1cccc(C(=O)Nc2ccc(Nc3nccc(-c4cccnc4)n3)cc2)c1	zebrafish Abcb4 (ABCB1 homolog)	inactive
COCCn1c2c([n+](Cc3cnccn3)c1C)C(=O)c1ccccc1C2=O	zebrafish Abcb4 (ABCB1 homolog)	inactive
CCC(C)C(=O)OC1CC(O)C23C4OCC5(C(O)CC2C1(C)C(O)O4)C3C(=O)C(O)C1(C)C(O)(c2ccoc2)CC2OC251 (stereo unspecified)	zebrafish Abcb4 (ABCB1 homolog)	inactive
CCc1cccc(CC)c1NC(=O)N1Cc2[nH]nc(NC(=O)c3ccc(N4CCN(C)CC4)cc3)c2C1	zebrafish Abcb4 (ABCB1 homolog)	inactive
CC1(C)CC(NC(=O)C(=O)Nc2ccc(Br)cc2)CC(C)(C)N1	zebrafish Abcb4 (ABCB1 homolog)	inactive
COC(C(=O)N1Cc2[nH]nc(NC(=O)c3ccc(N4CCN(C)CC4)cc3)c2C1)c1ccccc1 (stereo unspecified)	zebrafish Abcb4 (ABCB1 homolog)	inactive
CCCC(C=O)NC(=O)C(CC(C)C)NC(=O)C(CC(C)C)NC(=O)OCc1ccccc1 (stereo not drawn) (Cbz-Leu-Leu-[Nva]-aldehyde; configuration not given here)	zebrafish Abcb4 (ABCB1 homolog)	active
Cc1ccc(C(=O)N(CCCN)[C@@H](c2oc3cc(Cl)ccc3c(=O)c2Cc2ccccc2)C(C)C)cc1	zebrafish Abcb4 (ABCB1 homolog)	active
Cc1[nH]c2ccccc2c1CCNCc1ccc(/C=C/C(=O)NO)cc1	zebrafish Abcb4 (ABCB1 homolog)	active
CC(C)C[C@H](NC(=O)[C@H](CCc1ccccc1)NC(=O)CN1CCOCC1)C(=O)N[C@@H](Cc1ccccc1)C(=O)N[C@@H](CC(C)C)C(=O)[C@@]1(C)CO1	zebrafish Abcb4 (ABCB1 homolog)	active
C[C@@]12O[C@@H](C[C@]1(O)CO)n1c3ccccc3c3c4c(c5c6ccccc6n2c5c31)CNC4=O	zebrafish Abcb4 (ABCB1 homolog)	active
CN(C)c1ccc(C(=C2C=CC(=[N+](C)C)C=C2)c2ccc(N(C)C)cc2)cc1	zebrafish Abcb4 (ABCB1 homolog)	active
Cc1ccc(-c2ncn(-c3ccc(Nc4nccc(-c5cccc(N6CCOCC6)c5)n4)cc3)n2)cn1	zebrafish Abcb4 (ABCB1 homolog)	active
